Data provenance: ChEMBL document CHEMBL1142350

Biological target: C-C chemokine receptor type 3 (Homo sapiens, UniProt P51677)
Sequence (P51677 whole entry): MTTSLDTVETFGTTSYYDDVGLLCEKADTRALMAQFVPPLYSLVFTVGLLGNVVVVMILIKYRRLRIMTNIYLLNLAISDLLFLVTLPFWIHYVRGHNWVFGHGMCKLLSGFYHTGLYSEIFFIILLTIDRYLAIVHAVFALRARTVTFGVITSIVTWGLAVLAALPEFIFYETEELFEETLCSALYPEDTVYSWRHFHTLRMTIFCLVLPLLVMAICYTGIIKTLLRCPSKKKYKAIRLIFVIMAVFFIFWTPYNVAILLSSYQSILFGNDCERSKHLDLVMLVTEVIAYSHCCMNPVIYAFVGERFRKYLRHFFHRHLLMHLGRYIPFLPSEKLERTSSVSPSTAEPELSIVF
Assay: Displacement of [125I]eotaxin from human CCR3 receptor expressed in CHO cells
Format: cell-based
quantityMeasured: IC50 (nM)

| querySmiles | measValue |
| --- | --- |
| C[C@H](CCN1CCC[C@@H](Cc2ccc(F)cc2)C1)NC(=O)Nc1cc(-c2nnnn2C)cc(C(C)(C)O)c1 | 0.7 |

I. CC(=O)c1cc(NC(=O)N[C@H](C)CCN2CCC[C@@H](Cc3ccc(F)cc3)C2)cc(-c2nnnn2C)c1
II. C[C@H](CC(=O)N1CCC[C@@H](Cc2ccc(F)cc2)C1)NC(=O)Nc1cccc(-c2nnnn2C)c1
III. CC(C)c1cc(NC(=O)NCCCN2CCC[C@@H](Cc3ccc(F)cc3)C2)cc(-c2nnnn2C)c1
IV. CCc1cc(NC(=O)NCCCN2CCC[C@@H](Cc3ccc(F)cc3)C2)cc(-c2nnnn2C)c1
Order the records, beginning with the lowest IC50 and ending with the highest. Your task in answering is to list the labels in the requested order.
IV, I, III, II
(IV: 1 nM, I: 1.5 nM, III: 2.6 nM, II: 4.2 nM)

A. C[C@H](CCN1CCC[C@@H](Cc2ccc(F)cc2)C1)NC(=O)Nc1cc(Br)cc(-c2nnnn2C)c1
B. C[C@@H](CCN1CCC[C@@H](Cc2ccc(F)cc2)C1)NC(=O)Nc1cccc(-c2nnnn2C)c1
C. CC(C)c1cc(NC(=O)N[C@H](C)CCN2CCC[C@@H](Cc3ccc(F)cc3)C2)cc(-c2nnnn2C)c1
Please rank these compounds by IC50 in descending order. Your task in answering is to list the labels in the requested order.
B, C, A

a. CC[C@H](CCN1CCC[C@@H](Cc2ccc(F)cc2)C1)NC(=O)Nc1cc(-c2nnnn2C)cc(C(C)(C)O)c1
b. Cc1cc(NC(=O)N[C@H](C)CCN2CCC[C@@H](Cc3ccc(F)cc3)C2)cc(-c2nnnn2C)c1
c. CCc1cc(NC(=O)N[C@H](C)[C@H](CN2CCC[C@@H](Cc3ccc(F)cc3)C2)N(C)C)cc(-c2nnnn2C)c1
Please rank these compounds by IC50 in descending order. Your task in answering is to list the labels in the requested order.
a, b, c

a. O=C(NCCCN1CCC[C@@H](Cc2ccc(F)cc2)C1)Nc1cc(-n2cccn2)cc(-n2cccn2)c1
b. CC(=O)c1cc(NC(=O)N[C@H](C)CCN2CCC[C@@H](Cc3ccc(F)cc3)C2)cc(C(C)=O)c1
Param metric = IC50; output whichever of a , b has the minimum value. Field: selected label. Fill in the label of the entry you choose.
a

1. C[C@H](CCN1CCC[C@@H](Cc2ccc(F)cc2)C1)NC(=O)Nc1cccc(-c2nnnn2C)c1
2. CCc1cc(NC(=O)N[C@H](C)CCN2CCC[C@@H](Cc3ccc(F)cc3)C2)cc(-c2nnnn2C)c1
Determine, for 1 and 2 , which has the greater value of IC50. Field: selected label. Fill in the label of the entry you choose.
2

A. C[C@H](CCN1CCC[C@@H](Cc2ccc(F)cc2)C1)NC(=O)Nc1cc(-n2cccn2)cc(-n2cccn2)c1
B. CC(=O)c1cc(NC(=O)N[C@@H](C)CCN2CCC[C@@H](Cc3ccc(F)cc3)C2)cc(C(C)=O)c1
Param metric = IC50; output whichever of A , B has the minimum value. Field: selected label. Fill in the label of the entry you choose.
A
(A: 1.7 nM, B: 5.8 nM)

* * *

assay: Bioavailability in dog at 10 mg/kg, po; format: ADME, organism-based, Canis lupus familiaris; settings: in vivo
quantityMeasured: bioavailability (%)
A number alone suffices; assume %.

// lookup bioavailability for `C[C@@H](NC(=O)Nc1cccc(-c2nnnn2C)c1)[C@@H](O)CN1CCC[C@@H](Cc2ccc(F)cc2)C1`
17

* * *

The compounds below have reported IC50 for Cytochrome P450 2D6 (Homo sapiens).
quantityMeasured: IC50 (nM)

| querySmiles | targetDesc | IC50 (nM) |
| --- | --- | --- |
| C[C@@H](NC(=O)Nc1cccc(-c2nnnn2C)c1)[C@@H](O)CN1CCC[C@@H](Cc2ccc(F)cc2)C1 | Cytochrome P450 2D6 (Homo sapiens) | 2600 |

1. C[C@H](CC(=O)N1CCC[C@@H](Cc2ccc(F)cc2)C1)NC(=O)Nc1cccc(-c2nnnn2C)c1
2. CCC[C@H](CCN1CCC[C@@H](Cc2ccc(F)cc2)C1)NC(=O)Nc1cc(-c2nnnn2C)cc(C(C)(C)O)c1
Determine, for 1 and 2 , which has the greater value of IC50. Field: selected label. Fill in the label of the entry you choose.
1

* * *

assay: Metabolic stability assessed as clearance in human liver microsomes; assay type: ADME, Microsome
quantityMeasured: CLhep predicted (mL/min/kg)

| querySmiles | CLhep predicted, mL/min/kg |
| --- | --- |
| C[C@H](CCN1CCC[C@@H](Cc2ccc(F)cc2)C1)NC(=O)Nc1cc(-c2nnnn2C)cc(C(C)(C)O)c1 | 12 |
| CC[C@H](CCN1CCC[C@@H](Cc2ccc(F)cc2)C1)NC(=O)Nc1cc(-c2nnnn2C)cc(C(C)(C)O)c1 | 15 |
| CCC[C@H](CCN1CCC[C@@H](Cc2ccc(F)cc2)C1)NC(=O)Nc1cc(-c2nnnn2C)cc(C(C)(C)O)c1 | 17 |
